- Target: hCB2 receptor (Homo sapiens)
- Sequence (P34972 whole entry): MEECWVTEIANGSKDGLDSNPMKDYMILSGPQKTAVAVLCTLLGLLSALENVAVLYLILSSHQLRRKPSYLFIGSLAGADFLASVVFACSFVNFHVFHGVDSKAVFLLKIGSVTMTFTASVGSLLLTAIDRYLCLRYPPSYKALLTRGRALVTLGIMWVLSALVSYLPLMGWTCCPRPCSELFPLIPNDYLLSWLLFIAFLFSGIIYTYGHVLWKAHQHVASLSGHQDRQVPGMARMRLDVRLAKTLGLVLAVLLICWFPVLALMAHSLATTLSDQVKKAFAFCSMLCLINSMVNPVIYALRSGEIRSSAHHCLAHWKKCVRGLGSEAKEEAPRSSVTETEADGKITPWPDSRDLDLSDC
- Measurement Protocol: Agonism of CB2 by detection of cAMP using HTRF
- Assay type: cell-based
- Recorded Conditions: CHO cells stably expressing CB2 receptor; normalized to DMSO and maximal activation (5 nM CP55940)
Would you mind telling me the reported Emax of each entry?
Answers are plain numbers, in %.

- Compound: "CC(C)(C)NC(=O)c1nn(-c2cnccn2)c2c1CC1CCC2O1 (centres unmarked)"
  Emax / %: 99.7
- Compound: "CC(C)(C)c1cnc(-c2nn(-c3cnccn3)c3c2CC2CCC3O2)s1 (centres unmarked)"
  Emax / %: 99.7
- Compound: "O=C(NC1(C(F)(F)F)CC1)c1nn(-c2cnccn2)c2c1CC1CCC2O1 (centres unmarked)"
  Emax / %: 100
- Compound: "CC(C)(C)NC(=O)c1c2c(nn1-c1c[n+]([O-])ccn1)C1CCC(C2)O1 (centres unmarked)"
  Emax / %: 66.3
- Compound: "CCC(C)(C)c1noc(-c2nn(-c3c[n+]([O-])ccn3)c3c2CC2CCC3O2)n1 (centres unmarked)"
  Emax / %: 99.5
- Compound: "CC(C)(CO)NC(=O)c1nn(-c2c[n+]([O-])ccn2)c2c1CC1CCC2O1 (centres unmarked)"
  Emax / %: 100

// each listed compound needs a value for Emax
1. CC(C)(C)NC(=O)c1nn(-c2ccc(F)cc2F)c2c1C1CCC(C2)O1 (centres unmarked)
2. O=C(NC12CC3CC(CC1C3)C2)c1nn(-c2ccc(F)cc2F)c2c1CC1CCC2O1 (centres unmarked)
3. O=C(NC12CC(C1)C2)c1nn(-c2c[n+]([O-])ccn2)c2c1CC1CCC2O1 (centres unmarked)
4. CC(C)(C)c1nc(-c2nn(-c3cnccn3)c3c2CC2CCC3O2)no1 (centres unmarked)
5. O=C(NC1(C(F)(F)F)CCC1)c1nn(-c2c[n+]([O-])ccn2)c2c1CC1CCC2O1 (centres unmarked)

Output:
1: 82.5; 2: 99.1; 3: 100; 4: 100; 5: 99.9

// each listed compound needs a value for Emax
1. CC(C)(C)[C@@H](CO)NC(=O)c1nn(-c2c[n+]([O-])ccn2)c2c1C[C@H]1CC[C@@H]2O1
2. CCC(C)(C)c1noc(-c2nn(-c3cnccn3)c3c2CC2CCC3O2)n1 (centres unmarked)
3. O=C(NC12CCC(CC1)CC2)c1nn(-c2cnccn2)c2c1CC1CCC2O1 (centres unmarked)
4. CC(C)(C)c1nc(-c2nn(-c3c[n+]([O-])ccn3)c3c2CC2CCC3O2)no1 (centres unmarked)
5. CC(C)(C)[C@@H](CO)NC(=O)c1nn(-c2cnccn2)c2c1C[C@H]1CC[C@@H]2O1
6. CC(C)(C)c1nnc(-c2nn(-c3c[n+]([O-])ccn3)c3c2CC2CCC3O2)o1 (centres unmarked)

Output:
101
99.8
100
100
100
101

// each listed compound needs a value for Emax
1. CC(C)(C)[C@@H](CO)NC(=O)c1nn(-c2cnccn2)c2c1C[C@@H]1CC[C@H]2O1
2. O=C(NC1(C(F)(F)F)CCC1)c1nn(-c2cnccn2)c2c1CC1CCC2O1 (centres unmarked)

Output:
[100, 100]

// each listed compound needs a value for Emax
1. CC(C)(C)c1cnc(-c2nn(-c3c[n+]([O-])ccn3)c3c2CC2CCC3O2)s1 (centres unmarked)
2. O=C(NC12CCC(CC1)CC2)c1nn(-c2c[n+]([O-])ccn2)c2c1CC1CCC2O1 (centres unmarked)
3. CC(C)(C)c1nnc(-c2nn(-c3cnccn3)c3c2CC2CCC3O2)o1 (centres unmarked)

Output:
[97.8, 99.7, 100]
